Test system: IL-23 signaling (JAK2/Tyk2), Stat3 phosphorylation in hPBMCs
procedureDetails: cells
condition: Homo sapiens, 0.25 h, read-out: IC50, IL-23 cytokine signaling (JAK2/Tyk2)
parameter: IC50 (nM)
Answer in nM, number only, no unit symbol.

Challenge: IL-23 signaling (JAK2/Tyk2), Stat3 phosphorylation in hPBMCs / IC50 / C[C@H]1CN(C(=O)CC#N)[C@]12CCN(c1ncnc3[nH]ccc13)C2 [JTE-052] : value?
Response given: 84

----------
studyTarget: EGFR (Homo sapiens)
parameter: IC50

Challenge: EGFR (Homo sapiens) / IC50 / C[C@H]1CN(C(=O)CC#N)[C@]12CCN(c1ncnc3[nH]ccc13)C2 : value?
Response given: > 1000 nM

----------
studyTarget: UniProt:O75116
Sequence (O75116 whole entry, species assumed): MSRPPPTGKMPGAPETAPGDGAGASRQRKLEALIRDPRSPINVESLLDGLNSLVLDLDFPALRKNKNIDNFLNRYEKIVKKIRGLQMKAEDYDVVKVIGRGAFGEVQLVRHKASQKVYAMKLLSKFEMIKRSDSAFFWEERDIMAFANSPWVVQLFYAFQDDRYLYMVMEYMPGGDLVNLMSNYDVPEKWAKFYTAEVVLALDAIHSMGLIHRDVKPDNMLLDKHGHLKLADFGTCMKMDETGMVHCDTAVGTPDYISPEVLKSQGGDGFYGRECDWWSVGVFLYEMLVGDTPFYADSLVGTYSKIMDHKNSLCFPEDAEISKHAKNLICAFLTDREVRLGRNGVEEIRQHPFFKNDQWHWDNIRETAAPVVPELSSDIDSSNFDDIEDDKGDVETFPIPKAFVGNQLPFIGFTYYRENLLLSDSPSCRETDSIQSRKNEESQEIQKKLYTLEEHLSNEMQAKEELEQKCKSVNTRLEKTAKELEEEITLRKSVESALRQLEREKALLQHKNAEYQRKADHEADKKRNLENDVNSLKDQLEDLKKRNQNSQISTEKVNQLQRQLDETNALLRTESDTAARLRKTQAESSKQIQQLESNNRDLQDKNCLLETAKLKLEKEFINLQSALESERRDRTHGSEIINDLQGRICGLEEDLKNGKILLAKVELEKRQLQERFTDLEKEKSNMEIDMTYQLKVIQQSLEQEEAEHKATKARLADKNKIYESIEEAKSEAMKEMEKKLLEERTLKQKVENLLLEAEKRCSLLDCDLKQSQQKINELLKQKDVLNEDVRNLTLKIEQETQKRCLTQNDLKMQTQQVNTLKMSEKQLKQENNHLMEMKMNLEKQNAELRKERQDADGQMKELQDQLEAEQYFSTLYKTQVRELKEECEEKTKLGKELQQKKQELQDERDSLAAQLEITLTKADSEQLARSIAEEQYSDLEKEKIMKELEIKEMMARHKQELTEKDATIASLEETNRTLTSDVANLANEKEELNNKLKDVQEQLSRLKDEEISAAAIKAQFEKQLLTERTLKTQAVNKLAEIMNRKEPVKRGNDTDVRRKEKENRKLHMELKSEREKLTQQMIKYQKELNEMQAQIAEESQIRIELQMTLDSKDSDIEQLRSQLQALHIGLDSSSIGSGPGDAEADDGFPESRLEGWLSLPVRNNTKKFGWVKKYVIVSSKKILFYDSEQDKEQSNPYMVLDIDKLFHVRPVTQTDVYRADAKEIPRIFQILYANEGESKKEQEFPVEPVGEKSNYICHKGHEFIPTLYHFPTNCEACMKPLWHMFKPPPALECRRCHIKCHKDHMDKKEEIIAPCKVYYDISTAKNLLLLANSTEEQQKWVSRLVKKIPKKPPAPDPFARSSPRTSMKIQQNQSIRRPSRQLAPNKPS
parameter: pIC50
pIC50 here is simply -log10 of the concentration when that concentration is written in mol/L.

Challenge: So what does the record say about pIC50 for C[C@H]1CN(C(=O)CC#N)[C@]12CCN(c1ncnc3[nH]ccc13)C2 [JTE-052] ?
Response given: 6.85

----------
studyTarget: Lyn (Homo sapiens, UniProt P07948)
Sequence (P07948 whole entry, species assumed): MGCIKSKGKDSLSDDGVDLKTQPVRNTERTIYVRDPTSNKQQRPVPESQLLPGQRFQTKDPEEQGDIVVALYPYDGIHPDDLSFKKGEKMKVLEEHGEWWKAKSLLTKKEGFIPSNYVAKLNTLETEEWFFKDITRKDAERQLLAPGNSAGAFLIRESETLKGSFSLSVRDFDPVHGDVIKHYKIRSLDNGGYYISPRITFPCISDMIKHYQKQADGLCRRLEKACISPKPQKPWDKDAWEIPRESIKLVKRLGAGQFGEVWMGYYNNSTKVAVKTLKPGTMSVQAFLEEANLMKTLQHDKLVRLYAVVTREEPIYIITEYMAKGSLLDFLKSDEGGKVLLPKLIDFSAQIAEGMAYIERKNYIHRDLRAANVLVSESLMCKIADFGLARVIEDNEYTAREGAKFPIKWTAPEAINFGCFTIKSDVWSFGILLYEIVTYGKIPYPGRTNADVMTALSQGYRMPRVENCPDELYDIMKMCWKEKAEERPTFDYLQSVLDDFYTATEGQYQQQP
parameter: IC50

Challenge: So what does the record say about IC50 for C[C@H]1CN(C(=O)CC#N)[C@]12CCN(c1ncnc3[nH]ccc13)C2 ?
Response given: > 1000 nM

----------
studyTarget: SAPK2a (Homo sapiens, UniProt Q16539)
Sequence (Q16539 whole entry, species assumed): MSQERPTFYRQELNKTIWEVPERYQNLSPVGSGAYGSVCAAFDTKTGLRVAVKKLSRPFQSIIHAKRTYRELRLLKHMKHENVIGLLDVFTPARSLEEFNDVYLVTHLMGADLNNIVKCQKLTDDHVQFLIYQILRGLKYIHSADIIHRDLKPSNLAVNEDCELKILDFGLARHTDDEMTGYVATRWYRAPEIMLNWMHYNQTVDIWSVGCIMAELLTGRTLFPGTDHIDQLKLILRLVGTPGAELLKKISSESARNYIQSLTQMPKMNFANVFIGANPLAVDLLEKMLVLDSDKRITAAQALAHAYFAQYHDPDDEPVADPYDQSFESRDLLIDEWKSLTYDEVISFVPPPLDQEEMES
parameter: IC50

Challenge: SAPK2a (Homo sapiens, UniProt Q16539) / IC50 / C[C@H]1CN(C(=O)CC#N)[C@]12CCN(c1ncnc3[nH]ccc13)C2 : value?
Response given: > 1000 nM

----------
studyTarget: JNK2α2 (Homo sapiens)
Sequence (P45984 whole entry): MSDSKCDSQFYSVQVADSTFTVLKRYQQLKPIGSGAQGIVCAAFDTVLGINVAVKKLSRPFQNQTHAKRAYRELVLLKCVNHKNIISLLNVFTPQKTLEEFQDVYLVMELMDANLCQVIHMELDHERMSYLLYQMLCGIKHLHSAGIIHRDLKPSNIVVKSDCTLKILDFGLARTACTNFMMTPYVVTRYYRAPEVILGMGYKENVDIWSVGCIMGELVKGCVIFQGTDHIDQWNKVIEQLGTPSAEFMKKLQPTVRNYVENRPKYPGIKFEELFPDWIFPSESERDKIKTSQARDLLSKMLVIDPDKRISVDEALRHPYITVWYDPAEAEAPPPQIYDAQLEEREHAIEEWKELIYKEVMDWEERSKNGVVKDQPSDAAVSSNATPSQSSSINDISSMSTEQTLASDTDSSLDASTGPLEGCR
pIC50: −log10 of the molar value.
parameter: pIC50

Challenge: So what does the record say about pIC50 for C[C@H]1CN(C(=O)CC#N)[C@]12CCN(c1ncnc3[nH]ccc13)C2 [JTE-052] ?
Response given: < 6.00

----------
studyTarget: Flt1 (Homo sapiens, UniProt P17948)
Sequence (P17948 27-1338, species assumed): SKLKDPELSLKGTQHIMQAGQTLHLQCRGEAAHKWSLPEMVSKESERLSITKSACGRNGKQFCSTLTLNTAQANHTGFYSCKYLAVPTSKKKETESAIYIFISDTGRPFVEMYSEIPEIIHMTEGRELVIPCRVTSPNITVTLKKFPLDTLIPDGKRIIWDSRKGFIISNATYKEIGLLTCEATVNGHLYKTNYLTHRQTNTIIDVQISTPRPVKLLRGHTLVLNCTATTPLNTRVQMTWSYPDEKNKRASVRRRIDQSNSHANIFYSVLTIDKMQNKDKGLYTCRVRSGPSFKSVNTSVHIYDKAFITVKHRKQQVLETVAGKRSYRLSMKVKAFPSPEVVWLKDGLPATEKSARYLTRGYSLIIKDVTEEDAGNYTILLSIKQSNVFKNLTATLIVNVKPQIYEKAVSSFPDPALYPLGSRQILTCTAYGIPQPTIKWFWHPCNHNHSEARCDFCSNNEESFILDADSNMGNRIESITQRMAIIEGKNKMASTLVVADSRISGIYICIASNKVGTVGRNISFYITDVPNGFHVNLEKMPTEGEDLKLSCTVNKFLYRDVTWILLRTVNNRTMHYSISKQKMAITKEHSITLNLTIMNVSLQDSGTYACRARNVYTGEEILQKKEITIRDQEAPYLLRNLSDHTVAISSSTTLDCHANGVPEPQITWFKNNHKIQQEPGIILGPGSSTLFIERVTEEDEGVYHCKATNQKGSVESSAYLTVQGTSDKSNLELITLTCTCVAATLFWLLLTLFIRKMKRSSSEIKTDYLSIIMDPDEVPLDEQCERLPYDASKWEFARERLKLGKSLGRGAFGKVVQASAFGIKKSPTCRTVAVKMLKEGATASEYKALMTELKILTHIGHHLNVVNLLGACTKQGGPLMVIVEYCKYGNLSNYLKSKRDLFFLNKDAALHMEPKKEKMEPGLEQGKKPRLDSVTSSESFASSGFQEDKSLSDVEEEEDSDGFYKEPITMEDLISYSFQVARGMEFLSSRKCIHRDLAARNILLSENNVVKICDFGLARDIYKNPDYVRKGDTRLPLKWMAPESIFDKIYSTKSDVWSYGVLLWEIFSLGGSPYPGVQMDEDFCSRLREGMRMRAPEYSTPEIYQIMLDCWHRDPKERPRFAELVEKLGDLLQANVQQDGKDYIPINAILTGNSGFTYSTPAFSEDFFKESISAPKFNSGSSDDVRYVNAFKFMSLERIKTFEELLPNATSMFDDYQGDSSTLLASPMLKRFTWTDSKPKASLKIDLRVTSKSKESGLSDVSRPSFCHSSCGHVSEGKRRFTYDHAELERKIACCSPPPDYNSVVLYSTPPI
parameter: IC50

Challenge: Flt1 (Homo sapiens, UniProt P17948) / IC50 / C[C@H]1CN(C(=O)CC#N)[C@]12CCN(c1ncnc3[nH]ccc13)C2 : value?
Response given: > 1 µM

----------
Sequence of the target: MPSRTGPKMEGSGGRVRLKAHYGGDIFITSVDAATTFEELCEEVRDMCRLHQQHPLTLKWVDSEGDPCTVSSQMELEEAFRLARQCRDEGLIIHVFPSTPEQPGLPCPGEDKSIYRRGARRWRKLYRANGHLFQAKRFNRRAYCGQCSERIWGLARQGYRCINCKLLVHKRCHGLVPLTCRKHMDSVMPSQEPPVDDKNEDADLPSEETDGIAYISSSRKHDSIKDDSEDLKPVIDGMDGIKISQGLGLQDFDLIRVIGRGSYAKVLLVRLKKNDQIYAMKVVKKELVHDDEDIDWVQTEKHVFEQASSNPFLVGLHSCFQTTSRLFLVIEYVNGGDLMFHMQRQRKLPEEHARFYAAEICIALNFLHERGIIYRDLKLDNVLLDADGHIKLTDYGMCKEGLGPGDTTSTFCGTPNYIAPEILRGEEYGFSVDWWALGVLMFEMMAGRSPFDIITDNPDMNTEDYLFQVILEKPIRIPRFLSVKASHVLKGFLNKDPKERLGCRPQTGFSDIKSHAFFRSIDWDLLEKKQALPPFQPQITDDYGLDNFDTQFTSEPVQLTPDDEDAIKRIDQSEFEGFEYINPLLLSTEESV
parameter: IC50

Challenge: So what does the record say about IC50 for C[C@H]1CN(C(=O)CC#N)[C@]12CCN(c1ncnc3[nH]ccc13)C2 [JTE-052] ?
Response given: > 1 µM
